glycan array binding signal (z-score) for assorted binders
- experimentalTarget: GlcNAc(b1-3)Gal(b1-3)GalNAc
- assayInfo: glycan array binding signal (z-score within array); higher = stronger binding
- conditionsUsed: glycan notation: IUPAC condensed, linker removed
The entries come from a sample that favours the strongest signals as a whole.
reportedEndpoint: glycan array binding signal (z-score)

binder="AFL5 (Aspergillus fumigatus), Q4WB00 (protein) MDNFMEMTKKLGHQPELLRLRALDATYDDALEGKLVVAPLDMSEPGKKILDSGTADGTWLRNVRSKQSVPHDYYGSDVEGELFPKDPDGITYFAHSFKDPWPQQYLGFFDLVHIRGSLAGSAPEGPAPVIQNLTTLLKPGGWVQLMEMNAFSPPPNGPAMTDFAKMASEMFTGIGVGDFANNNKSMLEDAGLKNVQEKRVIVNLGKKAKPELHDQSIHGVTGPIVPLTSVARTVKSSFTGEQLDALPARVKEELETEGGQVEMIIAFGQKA" reportedendpoint="glycan array binding signal (z-score)" experimentalvalue=0.205
binder="F17fG (Escherichia coli), Q9RH91 (protein) MTNFYKVFLAVFILVCCNISHAAVSFIGSTENDVGPSQGSYSSTHAMDNLPFVYNTGHNIGYQNANVWRISGGFCVGLDGKVDLPVVGSLDGQSIYGLTEEVGLLIWMGDTNYSRGTAMSGNSWENVFSGWCVGNYVSTQGLSVHVRPVILKRNSSAQYSVQKTSIGSIRMRPYNGSSAGSVQTTVNFSLNPFTLNDTVTSCRLLTPSAVNVSLAAISAGQLPSSGDEVVAGTTSLKLQCDAGVTVWATLTDATTPSNRSDILTLTGASTATGVGLRIYKNTDSTPLKFGPDSPVKGNENQWQLSTGTETSPSVRLYVKYVNTGEGINPGTVNGISTFTFSYQ" reportedendpoint="glycan array binding signal (z-score)" experimentalvalue=5.89
